- test.target: Prostaglandin G/H synthase 2 (Homo sapiens)
- Sequence (P35354 whole entry): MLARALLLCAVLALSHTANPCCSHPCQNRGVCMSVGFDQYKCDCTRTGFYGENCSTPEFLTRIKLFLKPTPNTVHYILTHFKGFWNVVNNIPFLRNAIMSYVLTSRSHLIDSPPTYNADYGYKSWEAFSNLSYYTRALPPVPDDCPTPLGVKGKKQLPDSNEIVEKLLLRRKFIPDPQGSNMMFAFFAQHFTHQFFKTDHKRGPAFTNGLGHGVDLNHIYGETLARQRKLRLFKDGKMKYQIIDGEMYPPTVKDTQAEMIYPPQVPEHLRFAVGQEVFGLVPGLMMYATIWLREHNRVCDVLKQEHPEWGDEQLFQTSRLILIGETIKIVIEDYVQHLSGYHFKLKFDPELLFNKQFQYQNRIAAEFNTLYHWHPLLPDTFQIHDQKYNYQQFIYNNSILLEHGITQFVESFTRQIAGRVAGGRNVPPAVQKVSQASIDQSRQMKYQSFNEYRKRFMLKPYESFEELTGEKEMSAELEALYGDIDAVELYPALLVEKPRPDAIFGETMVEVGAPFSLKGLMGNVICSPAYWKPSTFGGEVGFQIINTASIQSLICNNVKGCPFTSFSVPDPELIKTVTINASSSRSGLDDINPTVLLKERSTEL
- experimental.details: Inhibition of COX2 in human whole blood
measured.property: pIC50
pIC50 (log units): -log10 of the concentration in mol/L.

Please review the entries below; each comes with its answer.
[
  {
    "compound": "CC(C(=O)OCC(CO[N+](=O)[O-])O[N+](=O)[O-])c1cccc(C(=O)c2ccccc2)c1 (centres undefined)",
    "pIC50": 6.13
  },
  {
    "compound": "CC(C(=O)OCC(CO[N+](=O)[O-])O[N+](=O)[O-])c1ccc(C(=O)c2cccs2)cc1 (centres undefined)",
    "pIC50": 5.57
  },
  {
    "compound": "CC(C(=O)O)c1ccc(C(=O)c2cccs2)cc1 (centres undefined) [SUPROFEN]",
    "pIC50": 5.56
  }
]

[ask] // fetch pIC50 given entry CC(COC(=O)C(C)c1cccc(C(=O)c2ccccc2)c1)O[N+](=O)[O-] (centres undefined)
[reply] 6.14
